biological target: Calcium/calmodulin-dependent protein kinase kinase 2 (Homo sapiens); assay: Induction of ePL tagged degradation of CaMKK2 (unknown origin) expressed in […] cells incubated for 24 hrs by luminescence based analysis
Sequence (Q96RR4 whole entry): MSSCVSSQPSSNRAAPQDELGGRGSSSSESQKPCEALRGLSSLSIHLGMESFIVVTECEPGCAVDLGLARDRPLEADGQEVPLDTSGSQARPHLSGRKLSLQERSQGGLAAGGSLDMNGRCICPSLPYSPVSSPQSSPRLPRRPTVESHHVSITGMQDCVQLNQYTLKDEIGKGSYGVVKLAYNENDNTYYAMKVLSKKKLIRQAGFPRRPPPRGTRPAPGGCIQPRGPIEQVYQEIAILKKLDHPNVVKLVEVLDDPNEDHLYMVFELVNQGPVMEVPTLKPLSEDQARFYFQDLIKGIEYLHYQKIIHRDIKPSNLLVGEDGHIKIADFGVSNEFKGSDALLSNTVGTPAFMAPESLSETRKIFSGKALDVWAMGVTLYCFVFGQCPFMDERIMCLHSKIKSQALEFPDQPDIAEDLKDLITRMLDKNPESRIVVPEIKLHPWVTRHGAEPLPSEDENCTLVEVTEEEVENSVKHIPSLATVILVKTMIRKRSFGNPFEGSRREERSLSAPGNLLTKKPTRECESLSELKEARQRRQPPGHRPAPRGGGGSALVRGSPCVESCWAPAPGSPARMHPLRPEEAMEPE
Quantity kind: EC50 (nM)

A selection of reference data follows.
Cc1ncsc1-c1ccc(CNC(=O)[C@@H]2C[C@@H](O)CN2C(=O)[C@@H](NC(=O)CCCCCCCOc2ccc3c(-c4ccc(C(=O)O)c(C5CCCC5)c4)ncnc3c2)C(C)(C)C)cc1: 510
Cc1ncsc1-c1ccc(CNC(=O)[C@@H]2C[C@@H](O)CN2C(=O)[C@@H](NC(=O)CCCCCCCCOc2ccc3c(-c4ccc(C(=O)O)c(C5CCCC5)c4)ncnc3c2)C(C)(C)C)cc1: 620

A = Cc1ncsc1-c1ccc(CNC(=O)[C@@H]2C[C@@H](O)CN2C(=O)[C@@H](NC(=O)CCCCCCCCCCOc2ccc3c(-c4ccc(C(=O)O)c(C5CCCC5)c4)ncnc3c2)C(C)(C)C)cc1
B = Cc1ncsc1-c1ccc(CNC(=O)[C@@H]2C[C@@H](O)CN2C(=O)[C@@H](NC(=O)CCCCCCCCCCCOc2ccc3c(-c4ccc(C(=O)O)c(C5CCCC5)c4)ncnc3c2)C(C)(C)C)cc1
C = Cc1ncsc1-c1ccc(CNC(=O)[C@@H]2C[C@@H](O)CN2C(=O)[C@@H](NC(=O)CCCCCCOc2ccc3c(-c4ccc(C(=O)O)c(C5CCCC5)c4)ncnc3c2)C(C)(C)C)cc1
query: Descending sort on EC50 required. Answer format: the labels, in the requested order.
result: B, C, A
